This collection of values is drawn from patent US20220088016A1.

- assayedSystem: CDK4/cyclinD3 (h) (Homo sapiens)
- test: Kinase IC50 (Eurofins KinaseProfiler)
pIC50: −log10 of the molar value.
readoutLabel: pIC50

Record Cc1cc(Oc2cc(NC(=O)C3CC3)ncn2)ccc1NC(=O)Nc1ccc(Cl)c(C(F)(F)F)c1 [CBT-102] . Reported pIC50: < 5.00

###

- assayedSystem: IGF-1R (h) (Homo sapiens, UniProt P08069)
- Sequence (P08069 31-1367): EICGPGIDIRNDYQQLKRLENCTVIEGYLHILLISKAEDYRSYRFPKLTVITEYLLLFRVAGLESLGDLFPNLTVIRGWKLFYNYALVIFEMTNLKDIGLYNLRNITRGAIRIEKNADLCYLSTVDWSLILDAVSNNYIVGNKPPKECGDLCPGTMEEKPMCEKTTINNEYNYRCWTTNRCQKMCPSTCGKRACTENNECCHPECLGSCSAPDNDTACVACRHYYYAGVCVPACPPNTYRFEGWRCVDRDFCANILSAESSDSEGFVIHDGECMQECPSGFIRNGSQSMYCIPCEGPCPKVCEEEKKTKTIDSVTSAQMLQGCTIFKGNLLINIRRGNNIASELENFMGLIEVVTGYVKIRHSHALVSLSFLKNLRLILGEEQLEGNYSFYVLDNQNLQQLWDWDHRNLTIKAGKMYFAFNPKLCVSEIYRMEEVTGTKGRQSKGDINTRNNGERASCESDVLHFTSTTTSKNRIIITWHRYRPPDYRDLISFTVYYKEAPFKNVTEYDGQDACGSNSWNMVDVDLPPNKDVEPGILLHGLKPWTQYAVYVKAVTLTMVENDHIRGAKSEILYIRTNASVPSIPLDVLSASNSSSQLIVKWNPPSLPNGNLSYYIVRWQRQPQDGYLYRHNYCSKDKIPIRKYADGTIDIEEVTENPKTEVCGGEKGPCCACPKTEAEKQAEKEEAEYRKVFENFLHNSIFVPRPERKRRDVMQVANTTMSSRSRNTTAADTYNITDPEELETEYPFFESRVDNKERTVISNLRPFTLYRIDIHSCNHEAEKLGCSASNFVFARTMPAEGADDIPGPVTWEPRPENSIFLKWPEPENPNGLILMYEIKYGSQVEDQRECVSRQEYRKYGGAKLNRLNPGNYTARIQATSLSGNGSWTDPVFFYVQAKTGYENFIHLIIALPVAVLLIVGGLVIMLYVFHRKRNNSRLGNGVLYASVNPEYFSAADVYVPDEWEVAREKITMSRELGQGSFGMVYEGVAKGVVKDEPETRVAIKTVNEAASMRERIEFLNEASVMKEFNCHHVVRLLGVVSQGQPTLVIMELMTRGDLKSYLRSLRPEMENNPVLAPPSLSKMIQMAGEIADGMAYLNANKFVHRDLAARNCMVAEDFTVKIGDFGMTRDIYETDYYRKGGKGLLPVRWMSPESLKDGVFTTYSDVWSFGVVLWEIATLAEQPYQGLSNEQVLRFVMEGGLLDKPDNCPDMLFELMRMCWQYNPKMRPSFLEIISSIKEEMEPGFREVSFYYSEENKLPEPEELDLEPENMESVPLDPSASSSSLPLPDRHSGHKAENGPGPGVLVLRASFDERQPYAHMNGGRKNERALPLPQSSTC
readoutLabel: IC50

Measured IC50, Cc1cc(Oc2cc(NC(=O)C3CC3)ncn2)ccc1NC(=O)Nc1ccc(Cl)c(C(F)(F)F)c1 : > 10 µM

###

- assayedSystem: IRAK4 (h) (Homo sapiens, UniProt Q9NWZ3)
pIC50: −log10 of the molar value.
readoutLabel: pIC50

Cc1cc(Oc2cc(NC(=O)C3CC3)ncn2)ccc1NC(=O)Nc1ccc(Cl)c(C(F)(F)F)c1 [CBT-102] has a reported pIC50 of < 5.00

###

- assayedSystem: EphB2 (h) (Homo sapiens, UniProt P29323)
- Sequence (P29323 19-1055): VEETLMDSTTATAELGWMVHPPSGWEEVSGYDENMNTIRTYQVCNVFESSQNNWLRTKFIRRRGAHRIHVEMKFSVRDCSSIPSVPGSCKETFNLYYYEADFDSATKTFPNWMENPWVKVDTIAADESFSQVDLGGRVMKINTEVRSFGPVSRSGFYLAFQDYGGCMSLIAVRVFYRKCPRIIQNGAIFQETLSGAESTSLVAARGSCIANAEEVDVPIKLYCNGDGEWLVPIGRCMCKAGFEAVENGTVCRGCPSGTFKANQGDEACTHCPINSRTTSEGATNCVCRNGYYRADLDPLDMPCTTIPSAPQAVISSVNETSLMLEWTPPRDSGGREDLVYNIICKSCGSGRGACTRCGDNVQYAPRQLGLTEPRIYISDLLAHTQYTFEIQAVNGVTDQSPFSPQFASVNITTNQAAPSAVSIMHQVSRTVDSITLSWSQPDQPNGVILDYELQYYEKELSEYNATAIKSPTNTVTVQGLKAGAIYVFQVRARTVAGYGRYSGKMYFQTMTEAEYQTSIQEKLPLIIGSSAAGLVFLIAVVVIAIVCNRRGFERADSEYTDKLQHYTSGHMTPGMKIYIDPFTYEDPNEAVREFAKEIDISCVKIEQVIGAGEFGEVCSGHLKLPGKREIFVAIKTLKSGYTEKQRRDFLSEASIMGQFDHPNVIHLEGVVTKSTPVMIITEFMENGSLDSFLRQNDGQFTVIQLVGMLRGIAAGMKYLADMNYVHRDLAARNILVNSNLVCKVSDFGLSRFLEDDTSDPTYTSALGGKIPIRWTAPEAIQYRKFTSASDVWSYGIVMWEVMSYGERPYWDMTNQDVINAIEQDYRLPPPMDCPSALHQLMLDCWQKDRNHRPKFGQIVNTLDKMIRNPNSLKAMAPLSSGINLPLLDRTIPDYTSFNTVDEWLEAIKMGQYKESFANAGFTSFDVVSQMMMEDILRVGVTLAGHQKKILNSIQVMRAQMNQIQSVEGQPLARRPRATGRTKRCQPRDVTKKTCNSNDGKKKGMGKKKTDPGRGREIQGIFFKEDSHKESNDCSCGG
readoutLabel: IC50 (µM)
Please give a number only; it is taken to be in µM.

# IC50 of Cc1cc(Oc2cc(NC(=O)C3CC3)ncn2)ccc1NC(=O)Nc1ccc(Cl)c(C(F)(F)F)c1 = 0.418

###

- assayedSystem: cKit (V560G) (h) (Homo sapiens, UniProt P10721, V560G)
- Sequence (P10721 26-976 V560G): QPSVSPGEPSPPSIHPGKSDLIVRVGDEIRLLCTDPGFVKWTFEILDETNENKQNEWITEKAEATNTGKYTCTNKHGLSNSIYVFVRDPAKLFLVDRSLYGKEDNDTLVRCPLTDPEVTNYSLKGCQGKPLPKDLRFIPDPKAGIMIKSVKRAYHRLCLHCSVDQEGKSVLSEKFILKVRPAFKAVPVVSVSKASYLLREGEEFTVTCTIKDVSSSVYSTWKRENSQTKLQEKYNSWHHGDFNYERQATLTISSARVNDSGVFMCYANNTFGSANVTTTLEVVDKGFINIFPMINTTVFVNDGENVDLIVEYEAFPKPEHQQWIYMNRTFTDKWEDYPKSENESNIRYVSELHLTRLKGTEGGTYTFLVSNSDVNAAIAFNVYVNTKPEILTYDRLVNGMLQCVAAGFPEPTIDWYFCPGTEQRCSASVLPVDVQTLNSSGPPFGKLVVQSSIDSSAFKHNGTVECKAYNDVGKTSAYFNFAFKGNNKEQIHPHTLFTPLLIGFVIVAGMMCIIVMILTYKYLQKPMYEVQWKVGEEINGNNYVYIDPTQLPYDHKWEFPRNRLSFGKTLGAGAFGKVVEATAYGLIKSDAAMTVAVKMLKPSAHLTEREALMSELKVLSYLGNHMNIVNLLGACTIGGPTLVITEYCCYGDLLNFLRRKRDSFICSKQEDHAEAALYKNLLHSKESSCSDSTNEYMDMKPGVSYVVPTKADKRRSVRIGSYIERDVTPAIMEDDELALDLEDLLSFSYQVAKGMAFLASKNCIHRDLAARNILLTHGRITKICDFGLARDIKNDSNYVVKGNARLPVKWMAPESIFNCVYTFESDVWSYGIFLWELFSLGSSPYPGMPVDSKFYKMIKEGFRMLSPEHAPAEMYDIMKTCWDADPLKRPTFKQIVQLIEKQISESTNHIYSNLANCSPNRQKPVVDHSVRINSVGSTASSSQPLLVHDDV
- test: Kinase IC50 (Eurofins KinaseProfiler)
readoutLabel: pIC50
Keep in mind that pIC50 stands for -log10 of concentration in molar terms.

pIC50 reported for this compound Cc1cc(Oc2cc(NC(=O)C3CC3)ncn2)ccc1NC(=O)Nc1ccc(Cl)c(C(F)(F)F)c1 [CBT-102] : 7.42

###

- assayedSystem: PKA (h) (Homo sapiens)
pIC50: −log10 of the molar value.
readoutLabel: pIC50

# Cc1cc(Oc2cc(NC(=O)C3CC3)ncn2)ccc1NC(=O)Nc1ccc(Cl)c(C(F)(F)F)c1 with PKA (h) (Homo sapiens): pIC50 is < 5.00

###

- assayedSystem: p70S6K (h) (Homo sapiens, UniProt P23443)
pIC50: −log10 of the molar value.
readoutLabel: pIC50

For Cc1cc(Oc2cc(NC(=O)C3CC3)ncn2)ccc1NC(=O)Nc1ccc(Cl)c(C(F)(F)F)c1 [CBT-102] on p70S6K (h) (Homo sapiens, UniProt P23443), measured pIC50 was < 5.00

###

- assayedSystem: ErbB2 (h) (Homo sapiens)
- Sequence (P04626 23-1255): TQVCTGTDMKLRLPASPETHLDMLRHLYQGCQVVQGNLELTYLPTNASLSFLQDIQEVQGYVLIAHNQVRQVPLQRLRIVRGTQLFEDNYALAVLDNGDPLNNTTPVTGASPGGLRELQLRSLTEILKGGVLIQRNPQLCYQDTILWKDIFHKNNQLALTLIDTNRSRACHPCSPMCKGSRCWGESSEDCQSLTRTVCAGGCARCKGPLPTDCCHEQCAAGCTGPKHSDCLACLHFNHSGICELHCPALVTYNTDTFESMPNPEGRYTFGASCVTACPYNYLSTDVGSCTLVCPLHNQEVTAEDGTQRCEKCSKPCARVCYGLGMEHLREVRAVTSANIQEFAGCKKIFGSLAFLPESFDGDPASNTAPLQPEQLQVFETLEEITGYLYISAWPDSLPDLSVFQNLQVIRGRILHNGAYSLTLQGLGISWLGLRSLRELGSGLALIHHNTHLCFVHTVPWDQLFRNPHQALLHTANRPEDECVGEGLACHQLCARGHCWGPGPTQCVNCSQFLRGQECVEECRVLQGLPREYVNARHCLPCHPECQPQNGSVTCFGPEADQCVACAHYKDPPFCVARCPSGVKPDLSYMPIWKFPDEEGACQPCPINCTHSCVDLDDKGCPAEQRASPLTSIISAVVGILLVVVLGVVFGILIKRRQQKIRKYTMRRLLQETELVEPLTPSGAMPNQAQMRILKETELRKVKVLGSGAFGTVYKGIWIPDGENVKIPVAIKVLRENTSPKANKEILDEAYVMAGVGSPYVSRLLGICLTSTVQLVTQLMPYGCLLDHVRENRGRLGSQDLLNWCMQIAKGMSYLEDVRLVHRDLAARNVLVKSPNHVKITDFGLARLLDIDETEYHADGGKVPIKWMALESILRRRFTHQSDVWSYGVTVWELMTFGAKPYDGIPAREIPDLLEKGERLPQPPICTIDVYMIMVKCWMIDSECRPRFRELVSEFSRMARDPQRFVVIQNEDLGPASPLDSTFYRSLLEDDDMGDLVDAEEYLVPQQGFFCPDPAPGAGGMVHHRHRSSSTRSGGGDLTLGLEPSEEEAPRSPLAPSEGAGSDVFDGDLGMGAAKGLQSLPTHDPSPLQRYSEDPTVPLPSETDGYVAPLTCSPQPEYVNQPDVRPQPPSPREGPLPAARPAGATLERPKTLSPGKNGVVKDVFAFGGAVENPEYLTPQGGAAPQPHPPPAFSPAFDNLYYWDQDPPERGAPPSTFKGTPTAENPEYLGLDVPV
readoutLabel: IC50

// sample Cc1cc(Oc2cc(NC(=O)C3CC3)ncn2)ccc1NC(=O)Nc1ccc(Cl)c(C(F)(F)F)c1 , its IC50 was > 10 µM

###

Listed compounds paired with reported pIC50
- Tested on: RAW264.7 cells
- test: Proliferation of RAW264.7 cells (CTG assay)
- Type: cell-based
- conditionDescription: Mus musculus, 72 h, RAW264.7 (CSF-1 independent, negative control), 3 days
Would you please state pIC50, meaning minus log10 of the concentration in mol/L, as a bare number?

{"columns": ["moleculeSmiles", "readoutLabel", "observedResult"],
 "data": [
  ["FC(F)(F)c1ccc(CNc2ccc(Cc3c[nH]c4ncc(Cl)cc34)cn2)cn1", "pIC50", 4.79]
]}

Turning now to a further compound:
Just so you know, measured pIC50 for Cc1cc(Oc2cc(NC(=O)C3CC3)ncn2)ccc1NC(=O)Nc1ccc(Cl)c(C(F)(F)F)c1 came out at 4.64

###

- assayedSystem: UniProt P09769
readoutLabel: pIC50
Remember, pIC50 is on a log scale: it is -log10 of the molar concentration.

The recorded pIC50 for entry Cc1cc(Oc2cc(NC(=O)C3CC3)ncn2)ccc1NC(=O)Nc1ccc(Cl)c(C(F)(F)F)c1 [CBT-102] equals 5.85

###

- assayedSystem: NEK2 (h) (Homo sapiens)
- Sequence (P51955 whole entry): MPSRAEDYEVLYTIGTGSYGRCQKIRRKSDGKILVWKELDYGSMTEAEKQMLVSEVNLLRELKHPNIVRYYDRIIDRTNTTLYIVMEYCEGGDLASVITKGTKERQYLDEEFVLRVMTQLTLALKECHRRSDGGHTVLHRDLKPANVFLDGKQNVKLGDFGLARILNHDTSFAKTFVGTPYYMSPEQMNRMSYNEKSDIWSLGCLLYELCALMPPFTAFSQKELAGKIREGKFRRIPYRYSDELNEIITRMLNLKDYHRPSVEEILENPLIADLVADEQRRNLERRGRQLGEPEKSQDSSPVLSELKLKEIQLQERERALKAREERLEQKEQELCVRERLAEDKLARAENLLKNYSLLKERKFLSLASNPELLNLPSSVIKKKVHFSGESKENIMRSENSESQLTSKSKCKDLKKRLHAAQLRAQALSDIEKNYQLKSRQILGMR
readoutLabel: IC50

Reading of IC50 for Cc1cc(Oc2cc(NC(=O)C3CC3)ncn2)ccc1NC(=O)Nc1ccc(Cl)c(C(F)(F)F)c1 [CBT-102] with NEK2 (h) (Homo sapiens): > 10 µM

###

- assayedSystem: Ret (V804M) (h) (Homo sapiens, UniProt P07949, V804M)
- Sequence (P07949 29-1114 V804M): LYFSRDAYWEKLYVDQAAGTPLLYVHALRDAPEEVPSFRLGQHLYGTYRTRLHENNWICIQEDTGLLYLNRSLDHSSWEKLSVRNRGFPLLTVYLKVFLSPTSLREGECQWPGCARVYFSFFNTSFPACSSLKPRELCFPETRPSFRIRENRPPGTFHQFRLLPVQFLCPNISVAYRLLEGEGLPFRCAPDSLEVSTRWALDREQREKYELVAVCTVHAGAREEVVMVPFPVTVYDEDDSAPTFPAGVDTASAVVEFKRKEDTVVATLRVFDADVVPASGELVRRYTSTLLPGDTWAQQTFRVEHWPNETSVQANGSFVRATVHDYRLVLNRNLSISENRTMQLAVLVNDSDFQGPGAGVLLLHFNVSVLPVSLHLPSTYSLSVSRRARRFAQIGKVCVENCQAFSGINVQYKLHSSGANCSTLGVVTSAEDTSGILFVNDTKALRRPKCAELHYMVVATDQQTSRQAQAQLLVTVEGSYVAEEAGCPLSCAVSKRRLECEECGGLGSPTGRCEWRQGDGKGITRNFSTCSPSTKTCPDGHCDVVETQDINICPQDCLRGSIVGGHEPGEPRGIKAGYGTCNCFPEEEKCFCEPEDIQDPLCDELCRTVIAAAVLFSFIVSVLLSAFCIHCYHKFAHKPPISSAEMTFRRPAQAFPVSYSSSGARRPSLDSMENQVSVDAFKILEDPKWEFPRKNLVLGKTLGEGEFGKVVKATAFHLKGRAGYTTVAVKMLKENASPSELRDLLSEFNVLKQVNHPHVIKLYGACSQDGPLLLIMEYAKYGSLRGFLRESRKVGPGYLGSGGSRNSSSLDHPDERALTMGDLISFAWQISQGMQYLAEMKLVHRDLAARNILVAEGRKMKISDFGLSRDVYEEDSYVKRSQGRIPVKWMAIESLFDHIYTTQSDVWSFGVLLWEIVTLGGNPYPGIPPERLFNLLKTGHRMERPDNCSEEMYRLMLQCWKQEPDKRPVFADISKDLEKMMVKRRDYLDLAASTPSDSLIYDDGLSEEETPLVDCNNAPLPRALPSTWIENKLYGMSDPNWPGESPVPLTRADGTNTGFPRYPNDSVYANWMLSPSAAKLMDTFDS
- test: Kinase IC50 (Eurofins KinaseProfiler)
readoutLabel: pIC50
Scale for pIC50: -log10 of concentration given in mol/L; no unit attached.

Item: Cc1cc(Oc2cc(NC(=O)C3CC3)ncn2)ccc1NC(=O)Nc1ccc(Cl)c(C(F)(F)F)c1 | pIC50: 6.16

###

- assayedSystem: Wee1 (h) (Homo sapiens, UniProt P30291)
pIC50: −log10 of the molar value.
readoutLabel: pIC50

// sample Cc1cc(Oc2cc(NC(=O)C3CC3)ncn2)ccc1NC(=O)Nc1ccc(Cl)c(C(F)(F)F)c1 , its pIC50 was < 5.00

###

- assayedSystem: UniProt:P08581
readoutLabel: pIC50
Interpret pIC50 as the negative base-10 log of the concentration measured in mol/L.

The molecule identified as Cc1cc(Oc2cc(NC(=O)C3CC3)ncn2)ccc1NC(=O)Nc1ccc(Cl)c(C(F)(F)F)c1 registered its pIC50 at 5.54

###

- assayedSystem: FGFR2 (h) (Homo sapiens)
readoutLabel: IC50 (nM)
Entry rule: numbers only, all in nM.

Summary for this compound, Cc1cc(Oc2cc(NC(=O)C3CC3)ncn2)ccc1NC(=O)Nc1ccc(Cl)c(C(F)(F)F)c1 : IC50 is 596

###

- assayedSystem: cKit (V654A) (h) (Homo sapiens, UniProt P10721, V654A)
- Construct: purchased Eurofins (KinaseProfiler service)
- Sequence (P10721 26-976 V654A): as the sequence (P10721 26-976 V560G) above, with G535V, V629A counted along it
- test: Kinase IC50 (Eurofins KinaseProfiler)
- Format: biochemical
readoutLabel: IC50 (nM)
Please respond with the number in nM and leave the unit unwritten.

So for Cc1cc(Oc2cc(NC(=O)C3CC3)ncn2)ccc1NC(=O)Nc1ccc(Cl)c(C(F)(F)F)c1 [CBT-102] , the logged IC50 turned out to be 278

###

- assayedSystem: Fms (h) (CSF1R) (Homo sapiens, UniProt P07333)
readoutLabel: pIC50
A value of pIC50 is the negative decimal logarithm of a concentration given in moles per litre.

The value of pIC50 recorded for Cc1cc(Oc2cc(NC(=O)C3CC3)ncn2)ccc1NC(=O)Nc1ccc(Cl)c(C(F)(F)F)c1 when tested on Fms (h) (CSF1R) (Homo sapiens, UniProt P07333) reads 7.37

###

Target sequence: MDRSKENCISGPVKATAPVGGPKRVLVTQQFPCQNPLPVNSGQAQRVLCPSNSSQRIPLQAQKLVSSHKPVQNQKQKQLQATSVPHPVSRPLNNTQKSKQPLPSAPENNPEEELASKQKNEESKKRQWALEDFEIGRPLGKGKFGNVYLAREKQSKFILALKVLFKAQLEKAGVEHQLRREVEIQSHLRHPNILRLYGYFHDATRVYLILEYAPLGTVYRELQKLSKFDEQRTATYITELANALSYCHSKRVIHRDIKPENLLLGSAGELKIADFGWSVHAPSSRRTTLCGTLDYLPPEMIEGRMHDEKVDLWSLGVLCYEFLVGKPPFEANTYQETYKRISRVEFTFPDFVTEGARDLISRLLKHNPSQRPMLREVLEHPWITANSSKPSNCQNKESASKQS
readoutLabel: pIC50
On this scale, pIC50 is minus log10 of a concentration expressed in M (mol/L).

pIC50 measured on Cc1cc(Oc2cc(NC(=O)C3CC3)ncn2)ccc1NC(=O)Nc1ccc(Cl)c(C(F)(F)F)c1 = 5.75
